test: Analysis of compound stability: spontaneous hydrolysis in aqueous buffer; assay type: physicochemical; conditions: 25 °C, 0.05 M phosphate buffer, pH 7.3; read-out: t1/2 for spontaneous hydrolysis (converted)
Measured attribute: half-life (h)

Record excerpt, results attached:
Query smiles | half-life, h
Cc1c(-c2ccccc2)c(=O)on1C(=O)C1CC1 | 8.3
Cc1ccc(-c2c(C)n(C(=O)c3cccc(C)c3)oc2=O)cc1 | 7.7
Cc1cccc(C(=O)n2oc(=O)c(-c3ccccc3)c2C)c1 | 4.1
Cc1cccc(C(=O)n2oc(=O)c(-c3ccc(NC(=O)C4CC4)cc3)c2C)c1 | 9.6
CC(=O)Nc1ccc(-c2c(C)n(C(=O)c3cccc(C)c3)oc2=O)cc1 | 3.9

I. Cc1ccc(-c2c(C)noc2OC(=O)c2cccc(C)c2)cc1
II. CC(=O)Nc1ccc(-c2c(C)noc2OC(=O)c2cccc(C)c2)cc1
(Q) Could you point out whether the larger half-life belongs to I or to II ? Let me know the label of the one you choose.
(A) I

* * *

Measured attribute: melting point

Record excerpt, results attached:
Compound | Result
Cc1c(-c2ccccc2)c(=O)on1S(=O)(=O)c1ccc(O)cc1 [Compound 3a] | 50 to 51 °C
Cc1c(-c2ccccc2)c(=O)on1C(=O)c1cccc(C#N)c1 [Compound 4g] | 118 to 119 °C
O=C(C1CC1)n1oc(=O)c(-c2ccccc2)c1-c1ccccc1 [Compound 4n] | 100 to 103 °C

Moving on to another compound below.
The measured melting point associated with Cc1cccc(C(=O)n2oc(=O)c3ccccc32)c1 [Compound 10c] reads 116 to 119 °C

* * *

Target: HNE (human neutrophil elastase) (Homo sapiens)
Construct: purchased Calbiochem
Sequence (P08246 30-267): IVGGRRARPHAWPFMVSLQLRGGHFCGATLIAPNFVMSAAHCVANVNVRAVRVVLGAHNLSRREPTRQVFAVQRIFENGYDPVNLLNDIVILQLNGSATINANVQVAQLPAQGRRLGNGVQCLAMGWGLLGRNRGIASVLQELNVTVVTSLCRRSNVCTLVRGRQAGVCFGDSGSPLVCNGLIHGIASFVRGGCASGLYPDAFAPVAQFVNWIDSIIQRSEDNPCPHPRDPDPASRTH
Experiment: HNE inhibition assay (fluorogenic substrate cleavage)
Assay type: biochemical
Details: highest concentration tested 50 µM
Measured attribute: HNE inhibitory activity, result in words

Compound | Measured attribute | Result
Cc1c(-c2ccccc2)c(=O)on1S(=O)(=O)c1ccc(NC(=O)C(C)(C)C)cc1 [Compound 3c] | HNE inhibitory activity, result in words | completely inactive
Cc1cccc(Cn2oc(=O)c(-c3ccccc3)c2C)c1 [Compound 2] | HNE inhibitory activity, result in words | completely inactive
Cc1cccc(C(=O)n2oc(=O)cc2-c2ccc([N+](=O)[O-])cc2)c1 [Compound 4s] | HNE inhibitory activity, result in words | completely inactive
O=C(C1CC1)n1oc(=O)cc1-c1ccc([N+](=O)[O-])cc1 [Compound 4t] | HNE inhibitory activity, result in words | completely inactive

* * *

Molecular target: HNE (Homo sapiens, UniProt P08246)
Construct: purchased Calbiochem
Sequence (P08246 30-267): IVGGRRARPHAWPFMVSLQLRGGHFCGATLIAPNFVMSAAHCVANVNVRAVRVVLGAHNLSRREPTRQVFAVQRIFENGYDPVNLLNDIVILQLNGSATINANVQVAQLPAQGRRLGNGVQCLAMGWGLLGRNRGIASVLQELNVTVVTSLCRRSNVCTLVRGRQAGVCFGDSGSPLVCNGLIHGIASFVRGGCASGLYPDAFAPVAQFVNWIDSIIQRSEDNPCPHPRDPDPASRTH
Test: Reversibility of HNE inhibition over extended periods of time
Type: biochemical
Conditions: 8 µM compound
# time for which HNE inhibition was maximal per entry

The measured time for which HNE inhibition was maximal associated with Cc1cccc(C(=O)n2oc(=O)c(-c3ccccc3)c2C)c1 [Compound 4a] reads > 120 min

The measured time for which HNE inhibition was maximal associated with Cc1ccc(-c2c(C)n(C(=O)c3cccc(C)c3)oc2=O)cc1 [Compound 7a] reads > 120 min

The measured time for which HNE inhibition was maximal associated with Cc1c(-c2ccccc2)c(=O)on1C(=O)C1CC1 [Compound 4b] reads > 120 min

meta.source: paper PMC6032016
